# Subject of test: human GPR119 receptor (Homo sapiens, UniProt Q8TDV5)
# Sequence (Q8TDV5 1-335): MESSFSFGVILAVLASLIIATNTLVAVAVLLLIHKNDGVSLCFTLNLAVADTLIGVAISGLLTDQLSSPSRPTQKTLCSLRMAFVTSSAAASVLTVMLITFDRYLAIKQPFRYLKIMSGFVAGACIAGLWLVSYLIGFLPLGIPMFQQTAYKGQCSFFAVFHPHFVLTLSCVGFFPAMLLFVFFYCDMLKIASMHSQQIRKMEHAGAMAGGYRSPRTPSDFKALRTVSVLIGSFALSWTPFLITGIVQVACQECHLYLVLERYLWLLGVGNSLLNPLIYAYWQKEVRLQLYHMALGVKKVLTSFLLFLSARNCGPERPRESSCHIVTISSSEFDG
# Measurement protocol: Ligand-induced GPR119 activation, cAMP formation (HTRF) in CHO-K1 cells
# Assay type: cell-based
# Parameters: expressed in transfected cells
# Experimental context: CHO-K1 cells, cAMP formation, experiment 2; read-out: EC-values for activation of GPR119, CHO-exp-2
Readout kind: EC50 (µM)

[I] CCCCCCCC/C=C\CCCCCCCC(=O)NCCO [Oleoylethanolamide, oleoylethanolamide, reference compound]
[II] CCCCCCCC/C=C\CCCCCCCC(=O)OC(CO)CO
## Input // select label with min value of measured EC50 from [ I , II ] Identify your selection by its label.
## Output II
(II: 1.12 µM, I: 4.65 µM)

* * *

# Subject of test: human GPR119 receptor (Homo sapiens, UniProt Q8TDV5)
# Measurement protocol: Ligand-induced GPR119 activation, cAMP formation (HTRF) in CHO-K1 cells
# Format: cell-based
# Design: expressed in transfected cells
# Experimental context: CHO-K1 cells, cAMP formation, experiment 3; read-out: EC-values for activation of GPR119, CHO-exp-3
Readout kind: pEC50
// pEC50: -log10(molar conc.)

## Input Which pEC50 reading was recorded for the compound CCCCCCCC/C=C\CCCCCCCC(=O)NCCO [Oleoylethanolamide, oleoylethanolamide, reference compound] ?
## Output 5.78

* * *

# Subject of test: human GPR119 receptor (Homo sapiens, UniProt Q8TDV5)
# Measurement protocol: Ligand-induced GPR119 activation, cAMP accumulation (3H-adenine) in transiently transfected COS-7 cells
# Format: cell-based
# Set-up: expressed in transfected cells; host or cells: COS-7
# Experimental context: transiently transfected COS-7 cells, Table 2; read-out: EC50 for activation of GPR119
Readout kind: pEC50
// pEC50: -log10(molar conc.)

>  <Smiles code>
CCCCCCCC/C=C\CCCCCCCC(=O)OC(CO)CO

>  <Readout kind>
pEC50

>  <Measured>
5.38

$$$$

## Input Which pEC50 reading was recorded for the compound CCCCCCCC/C=C\CCCCCCCCOC(CO)CO ?
## Output 5.10
